# experiment description: Growth inhibition of human HCC2998 cells after 48 hrs by sulforhodamine B assay
# Type: functional
# details: HCC 2998, 48 h
reported endpoint: TGI

// returns reported TGI for input O=C(Nc1cccc(-n2cc(-c3ccncc3)c(-c3ccc(Cl)c(O)c3)n2)c1)c1ccc(N2CCOCC2)c(C(F)(F)F)c1
> 50 µM

Another: COc1cc(-c2nn(-c3cccc(NC(=O)Nc4ccc(Cl)c(C(F)(F)F)c4)c3)cc2-c2ccncc2)ccc1Cl
7.3 µM

Another: COc1cc(-c2nn(-c3cccc(NC(=O)c4ccc(N5CCOCC5)c(C(F)(F)F)c4)c3)cc2-c2ccncc2)ccc1Cl
5.02 µM

Another: COc1cc(-c2nn(-c3cccc(NC(=O)c4ccccc4)c3)cc2-c2ccncc2)ccc1Cl
22.4 µM

Another: O=C(Nc1cccc(-n2cc(-c3ccncc3)c(-c3ccc(Cl)c(O)c3)n2)c1)Nc1cc(C(F)(F)F)cc(C(F)(F)F)c1
2.41 µM

Another: COc1cc(-c2nn(-c3cccc(NC(=O)Nc4ccc(Cl)c(Cl)c4)c3)cc2-c2ccncc2)ccc1Cl
6.2 µM

----------
I'd be grateful if you could share measured growth at 10 µM for these entries.
# System: UO-31
# experiment description: Growth inhibition of human UO31 cells assessed as cell growth at 10 uM after 48 hrs by sulforhodamine B assay
# Assay type: functional
# details: UO-31, 48 h, read-out: Activity
Enter your answer as a number in %; do not include the unit.

// returns reported growth at 10 µM for input COc1cc(-c2nn(-c3cccc(NC(=O)Nc4ccc(Cl)c(Cl)c4)c3)cc2-c2ccncc2)ccc1Cl
15.9

Another: O=C(Nc1cccc(-n2cc(-c3ccncc3)c(-c3ccc(Cl)c(O)c3)n2)c1)c1ccc(Cl)c(C(F)(F)F)c1
81.2

Another: COc1cc(-c2nn(-c3cccc(NC(=O)Nc4ccc(Cl)c(C(F)(F)F)c4)c3)cc2-c2ccncc2)ccc1Cl
11

Another: O=C(Nc1cccc(-n2cc(-c3ccncc3)c(-c3ccc(Cl)c(O)c3)n2)c1)Nc1ccc(Cl)c(Cl)c1
21

----------
# experiment description: Growth inhibition of human Hs 578T cells assessed as cell growth at 10 uM after 48 hrs by sulforhodamine B assay
# Format: functional
# details: read-out: Activity
Class (by growth at 10 µM) -- one = under -10%, two = from -10% up to 40%, three = 40% and over

Place this compound in its band: COc1cc(-c2nn(-c3cccc(NC(=O)Nc4ccc(Cl)c(C(F)(F)F)c4)c3)cc2-c2ccncc2)ccc1Cl
two

Another: COc1cc(-c2nn(-c3cccc(NC(=O)Nc4cccc(C(F)(F)F)c4)c3)cc2-c2ccncc2)ccc1Cl
one

Another: O=C(Nc1cccc(-n2cc(-c3ccncc3)c(-c3ccc(Cl)c(O)c3)n2)c1)c1ccc(N2CCOCC2)c(C(F)(F)F)c1
two

Another: COc1cc(-c2nn(-c3cccc(NC(=O)c4ccc(N5CCOCC5)c(C(F)(F)F)c4)c3)cc2-c2ccncc2)ccc1Cl
one

Another: O=C(Nc1cccc(-n2cc(-c3ccncc3)c(-c3ccc(Cl)c(O)c3)n2)c1)c1ccccc1
three

Another: COc1cc(-c2nn(-c3cccc(NC(=O)Nc4ccccc4)c3)cc2-c2ccncc2)ccc1Cl
three

Another: COc1cc(-c2nn(-c3cccc(NC(=O)c4ccc(Cl)c(C(F)(F)F)c4)c3)cc2-c2ccncc2)ccc1Cl
two

Another: O=C(Nc1cccc(-n2cc(-c3ccncc3)c(-c3ccc(Cl)c(O)c3)n2)c1)Nc1cc(C(F)(F)F)cc(C(F)(F)F)c1
one

Another: O=C(Nc1cccc(-n2cc(-c3ccncc3)c(-c3ccc(Cl)c(O)c3)n2)c1)Nc1ccc(Cl)c(Cl)c1
two

----------
I'd be grateful if you could share measured LC50 for these entries.
# Tested on: HCT-15
# experiment description: Growth inhibition of human HCT15 cells after 48 hrs by sulforhodamine B assay
# Type: functional
# details: HCT-15, 48 h

// returns reported LC50 for input COc1cc(-c2nn(-c3cccc(NC(=O)Nc4cccc(C(F)(F)F)c4)c3)cc2-c2ccncc2)ccc1Cl
50 µM

Another: COc1cc(-c2nn(-c3cccc(NC(=O)Nc4ccc(Cl)c(Cl)c4)c3)cc2-c2ccncc2)ccc1Cl
> 50 µM

Another: O=C(Nc1cccc(-n2cc(-c3ccncc3)c(-c3ccc(Cl)c(O)c3)n2)c1)Nc1cc(C(F)(F)F)cc(C(F)(F)F)c1
21.2 µM

Another: COc1cc(-c2nn(-c3cccc(NC(=O)c4ccc(Cl)c(C(F)(F)F)c4)c3)cc2-c2ccncc2)ccc1Cl
> 32.5 µM

Another: O=C(Nc1cccc(-n2cc(-c3ccncc3)c(-c3ccc(Cl)c(O)c3)n2)c1)Nc1ccc(Cl)c(Cl)c1
> 32.5 µM

Another: O=C(Nc1cccc(-n2cc(-c3ccncc3)c(-c3ccc(Cl)c(O)c3)n2)c1)Nc1ccc(Cl)c(C(F)(F)F)c1
> 32.5 µM

----------
# Test system: RPMI-8226
# experiment description: Growth inhibition of human RPMI8226 cells after 48 hrs by sulforhodamine B assay
# Format: functional, cell-based
# details: RPMI-8226, 48 h
reported endpoint: TGI (µM)
Enter your answer as a number in µM; do not include the unit.

// returns reported TGI for input O=C(Nc1cccc(-n2cc(-c3ccncc3)c(-c3ccc(Cl)c(O)c3)n2)c1)c1ccc(N2CCOCC2)c(C(F)(F)F)c1
12.5

Another: COc1cc(-c2nn(-c3cccc(NC(=O)Nc4cccc(C(F)(F)F)c4)c3)cc2-c2ccncc2)ccc1Cl
3.12

Another: COc1cc(-c2nn(-c3cccc(NC(=O)Nc4ccc(Cl)c(C(F)(F)F)c4)c3)cc2-c2ccncc2)ccc1Cl
3.25

Another: O=C(Nc1cccc(-n2cc(-c3ccncc3)c(-c3ccc(Cl)c(O)c3)n2)c1)Nc1ccc(Cl)c(C(F)(F)F)c1
2

----------
# System: RXF 393
# experiment description: Growth inhibition of human RXF393 cells assessed as cell growth at 5X10'-8 M after 48 hrs by sulforhodamine B assay
# Type: functional
# details: RXF 393, 48 h, read-out: Activity
reported endpoint: growth at 0.05 µM (%)
Enter your answer as a number in %; do not include the unit.

// returns reported growth at 0.05 µM for input O=C(Nc1cccc(-n2cc(-c3ccncc3)c(-c3ccc(Cl)c(O)c3)n2)c1)Nc1cc(C(F)(F)F)cc(C(F)(F)F)c1
89

Another: O=C(Nc1cccc(-n2cc(-c3ccncc3)c(-c3ccc(Cl)c(O)c3)n2)c1)c1ccc(N2CCOCC2)c(C(F)(F)F)c1
101

Another: COc1cc(-c2nn(-c3cccc(NC(=O)Nc4cccc(C(F)(F)F)c4)c3)cc2-c2ccncc2)ccc1Cl
101

Another: COc1cc(-c2nn(-c3cccc(NC(=O)Nc4cc(C(F)(F)F)cc(C(F)(F)F)c4)c3)cc2-c2ccncc2)ccc1Cl
92

----------
# experiment description: Growth inhibition of human HCC2998 cells assessed as cell growth at 10 uM after 48 hrs by sulforhodamine B assay
# Format: functional
# details: HCC 2998, 48 h, read-out: Activity
reported endpoint: growth at 10 µM (%)
Enter your answer as a number in %; do not include the unit.

// returns reported growth at 10 µM for input COc1cc(-c2nn(-c3cccc(NC(=O)c4ccc(N5CCOCC5)c(C(F)(F)F)c4)c3)cc2-c2ccncc2)ccc1Cl
8.82

Another: COc1cc(-c2nn(-c3cccc(NC(=O)Nc4cc(C(F)(F)F)cc(C(F)(F)F)c4)c3)cc2-c2ccncc2)ccc1Cl
-10.8

Another: COc1cc(-c2nn(-c3cccc(NC(=O)c4ccc(Br)c(C)c4)c3)cc2-c2ccncc2)ccc1Cl
88.2

Another: O=C(Nc1cccc(-n2cc(-c3ccncc3)c(-c3ccc(Cl)c(O)c3)n2)c1)Nc1cc(C(F)(F)F)cc(C(F)(F)F)c1
-56.9

----------
# System: CAKI-1
# experiment description: Growth inhibition of human CAKI-1 cells after 48 hrs by sulforhodamine B assay
# Format: functional
# details: CAKI-1, 48 h
I'd be grateful if you could share measured TGI for these entries.
Enter your answer as a number in µM; do not include the unit.

// returns reported TGI for input COc1cc(-c2nn(-c3cccc(NC(=O)c4ccc(N5CCOCC5)c(C(F)(F)F)c4)c3)cc2-c2ccncc2)ccc1Cl
8.12

Another: COc1cc(-c2nn(-c3cccc(NC(=O)Nc4ccc(Cl)c(C(F)(F)F)c4)c3)cc2-c2ccncc2)ccc1Cl
4.72

Another: O=C(Nc1cccc(-n2cc(-c3ccncc3)c(-c3ccc(Cl)c(O)c3)n2)c1)Nc1ccc(Cl)c(C(F)(F)F)c1
2.63

Another: O=C(Nc1cccc(-n2cc(-c3ccncc3)c(-c3ccc(Cl)c(O)c3)n2)c1)Nc1ccc(Cl)c(Cl)c1
14.3

----------
I'd be grateful if you could share measured GI50 for these entries.
# Tested on: DU-145
# experiment description: Growth inhibition of human DU145 cells after 48 hrs by sulforhodamine B assay
# Type: functional
# details: DU-145, 48 h
Enter your answer as a number in nM; do not include the unit.

// returns reported GI50 for input O=C(Nc1cccc(-n2cc(-c3ccncc3)c(-c3ccc(Cl)c(O)c3)n2)c1)Nc1ccc(Cl)c(Cl)c1
1500

Another: COc1cc(-c2nn(-c3cccc(NC(=O)c4ccc(Cl)c(C(F)(F)F)c4)c3)cc2-c2ccncc2)ccc1Cl
6390

Another: O=C(Nc1cccc(-n2cc(-c3ccncc3)c(-c3ccc(Cl)c(O)c3)n2)c1)Nc1cccc(C(F)(F)F)c1
1760

Another: COc1cc(-c2nn(-c3cccc(NC(=O)Nc4ccc(Cl)c(Cl)c4)c3)cc2-c2ccncc2)ccc1Cl
1520
